Biological target: Human full-length ERα (Homo sapiens)
Construct: expression vector encoding human full-length ERα or ERβ; expressed in transfected cells; host or cells: HEK293, transiently transfected
Sequence (P03372 1-595): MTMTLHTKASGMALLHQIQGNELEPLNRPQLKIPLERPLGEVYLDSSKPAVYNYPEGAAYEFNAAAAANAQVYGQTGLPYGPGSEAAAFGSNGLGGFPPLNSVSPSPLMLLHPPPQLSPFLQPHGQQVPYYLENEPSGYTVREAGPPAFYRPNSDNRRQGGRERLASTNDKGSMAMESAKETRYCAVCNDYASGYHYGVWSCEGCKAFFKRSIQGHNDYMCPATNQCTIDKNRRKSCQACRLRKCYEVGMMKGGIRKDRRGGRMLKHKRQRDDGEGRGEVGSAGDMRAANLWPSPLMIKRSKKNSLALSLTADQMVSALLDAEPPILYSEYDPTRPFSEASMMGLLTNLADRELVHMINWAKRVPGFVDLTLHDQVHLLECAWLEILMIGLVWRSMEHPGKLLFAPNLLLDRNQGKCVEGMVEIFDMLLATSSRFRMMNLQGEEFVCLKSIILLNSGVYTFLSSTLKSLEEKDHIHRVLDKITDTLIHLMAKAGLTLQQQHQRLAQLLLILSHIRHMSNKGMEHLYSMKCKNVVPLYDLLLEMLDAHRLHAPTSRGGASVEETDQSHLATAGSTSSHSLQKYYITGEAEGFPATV
Test: ERα cell-based luciferase reporter assay, agonist mode, transiently transfected HEK293 cells
Conditions: 24 h; low = activity detected but too low for exact value; read-out: ERα EC50
REPORTED ENDPOINT: EC50 (nM)

1. CCCc1c(-c2ccc(O)cc2)nn(-c2ccc(O)cc2)c1-c1ccc(O)cc1
3.3
